A collection of compounds and their measured pKi
- System Under Test: Non-structural protein 4b (Hepacivirus hominis)
- Sequence (F5B4I0 whole entry): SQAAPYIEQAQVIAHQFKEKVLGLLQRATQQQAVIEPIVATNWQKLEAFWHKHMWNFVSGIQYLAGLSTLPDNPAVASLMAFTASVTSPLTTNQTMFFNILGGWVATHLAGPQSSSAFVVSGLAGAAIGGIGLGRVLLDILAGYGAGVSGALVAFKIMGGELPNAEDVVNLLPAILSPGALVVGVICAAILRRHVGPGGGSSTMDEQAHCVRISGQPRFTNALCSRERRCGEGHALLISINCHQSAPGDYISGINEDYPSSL
- Assay Remarks: Binding affinity to Hepatitis C virus genotype 1b NS4B assessed as inhibition constant
In textbook form, pKi equals minus log to base ten of the concentration in mol/L.

CC(C)(C)[C@@H]1NC(=O)O[C@@H]2CCC[C@H]2OC/C=C/C(F)(F)c2nc3ccccc3nc2O[C@@H]2C[C@@H](C(=O)N[C@]3(C(=O)NS(=O)(=O)C4(C)CC4)C[C@H]3C(F)F)N(C2)C1=O 10.20
CC[C@@H]1C[C@]1(NC(=O)[C@@H]1C[C@@H]2CN1C(=O)[C@H](C(C)(C)C)NC(=O)OCC(C)(C)CCCCc1cccc3c1CN(C3)C(=O)O2)C(=O)NS(=O)(=O)C1CC1 10.30

Attention now turns to another entry.
-- ask # get_value(readout='pKi', item= C=C[C@@H]1C[C@]1(NC(=O)[C@@H]1C[C@@H](Oc2cc(-c3ccccc3)nc3cc(OC)ccc23)CN1C(=O)[C@@H](CC(=O)N1CCCCC1)C(C)(C)C)C(=O)NS(=O)(=O)C1CC1 )
-- reply 10.22

Cited source: ChEMBL document CHEMBL5537165
